biological target: Nuclear receptor subfamily 1 group I member 2 (Homo sapiens) (UniProt O75469); assay: Human pregnane X receptor (PXR) small molecule agonists, qHTS assay (AID 1346982); details: PXR-Luc HepG2, CYP3A4 luciferase reporter, 24 h; series mostly up to 92.4 µM; note: nearly all actives have a fitted effect of over 35% in size
Sequence (O75469 whole entry, looked up): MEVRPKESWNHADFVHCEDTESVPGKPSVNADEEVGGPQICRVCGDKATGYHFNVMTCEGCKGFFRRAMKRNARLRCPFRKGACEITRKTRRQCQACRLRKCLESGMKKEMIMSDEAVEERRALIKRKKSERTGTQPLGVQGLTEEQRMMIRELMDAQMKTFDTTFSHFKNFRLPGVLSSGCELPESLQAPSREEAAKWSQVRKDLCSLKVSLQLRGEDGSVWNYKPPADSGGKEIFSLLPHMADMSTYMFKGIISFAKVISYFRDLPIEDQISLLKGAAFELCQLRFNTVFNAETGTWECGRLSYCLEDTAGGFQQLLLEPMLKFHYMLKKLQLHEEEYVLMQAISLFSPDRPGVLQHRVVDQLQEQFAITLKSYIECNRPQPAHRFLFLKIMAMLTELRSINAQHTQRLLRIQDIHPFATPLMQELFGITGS
Results filed as inconclusive are left out. Active and inactive are the calls of the source. Calls come from the whole dose curve; as a rule, active = well fitted activation curve with a large enough effect in the repeat runs; inconclusive = weak or mixed curves; inactive = no such curve, though single readings can be large or run the other way.
The reply should name one outcome from 1 for active, 0 for inactive

Here are 8 compounds together with their reported answers.
{"columns": ["compound", "assigned_label"],
 "data": [
  ["O[C@@H](COc1cccc2ncccc12)CN1CCN(C2c3ccccc3[C@@H]3[C@H](c4ccccc42)C3(F)F)CC1 (some centres not stated)", 1],
  ["CCCCC/C=C\\C/C=C\\CCCCCCCC(=O)NC(C)c1ccccc1 (configuration not stated)", 1],
  ["CCCCCCCCCCCCN1CCCCCC1=O", 1],
  ["O=C(OCCCCCCOC(=O)c1ccccc1)c1ccccc1", 0],
  ["CCCCC1=NC2(CCCC2)C(=O)N1Cc1ccc(-c2ccccc2-c2nn[nH]n2)cc1", 0],
  ["OC(C#CCN1CCCC1)(c1ccccc1)c1ccccc1", 1],
  ["CCCCCCOC(=O)NC(=N)c1ccc(NCc2nc3cc(C(=O)N(CCC(=O)OCC)c4ccccn4)ccc3n2C)cc1", 1],
  ["Nc1cccc([N+](=O)[O-])c1", 0]
]}

Problem: Identify the outcome logged in this assay for the compound shown: O=C(O)C(S)C(S)C(=O)O (configuration not stated)
Result: 0

Problem: Please do the same for CCOC(=O)COC(=O)c1cc(Oc2ccc(C(F)(F)F)cc2Cl)ccc1[N+](=O)[O-] as well.
Result: 1

Problem: Then what about the compound O=C(Cl)c1cc(C(=O)Cl)cc(C(=O)Cl)c1 ?
Result: 1

----------
target: Aryl hydrocarbon receptor (Homo sapiens) (UniProt P35869); test: qHTS assay to identify small molecule that activate the aryl hydrocarbon receptor (AhR) signaling pathway (AID 743085); conditions: HepG2 AhR-luc (HG2L7.5c1), luciferase, 24 h; series mostly up to 70.3 µM; note: nearly all actives have a fitted effect of over 15% in size;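 for activation: HG2L7.5c1 human HepG2 liver cells with stably integrated DRE-driven firefly reporter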
Sequence (P35869 whole entry, looked up): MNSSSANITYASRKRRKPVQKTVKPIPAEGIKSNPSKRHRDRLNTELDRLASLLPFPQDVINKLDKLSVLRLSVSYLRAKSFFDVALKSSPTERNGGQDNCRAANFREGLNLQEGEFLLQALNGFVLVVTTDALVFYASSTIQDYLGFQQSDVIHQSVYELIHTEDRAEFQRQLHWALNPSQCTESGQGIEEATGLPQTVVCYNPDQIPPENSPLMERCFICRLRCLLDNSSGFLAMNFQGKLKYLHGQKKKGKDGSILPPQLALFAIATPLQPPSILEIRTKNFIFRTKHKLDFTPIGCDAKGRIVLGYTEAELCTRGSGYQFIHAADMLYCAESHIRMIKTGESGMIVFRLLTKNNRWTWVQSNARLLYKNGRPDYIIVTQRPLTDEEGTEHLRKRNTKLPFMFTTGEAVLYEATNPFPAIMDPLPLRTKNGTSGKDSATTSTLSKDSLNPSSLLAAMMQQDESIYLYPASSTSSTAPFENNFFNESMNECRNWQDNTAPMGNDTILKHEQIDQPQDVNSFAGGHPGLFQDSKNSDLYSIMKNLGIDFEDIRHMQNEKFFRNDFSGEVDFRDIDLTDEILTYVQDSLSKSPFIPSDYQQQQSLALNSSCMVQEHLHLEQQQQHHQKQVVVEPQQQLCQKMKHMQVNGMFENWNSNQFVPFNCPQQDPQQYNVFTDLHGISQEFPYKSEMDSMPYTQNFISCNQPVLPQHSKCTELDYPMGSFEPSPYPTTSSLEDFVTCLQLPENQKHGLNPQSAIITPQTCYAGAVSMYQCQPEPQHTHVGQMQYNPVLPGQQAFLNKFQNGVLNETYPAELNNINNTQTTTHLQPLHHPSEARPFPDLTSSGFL
Results filed as inconclusive are left out. Calls of active or inactive are those of the source. Calls follow the shape of the dose curve; as a rule, active = well fitted activation curve with a large enough effect in the repeat runs; inconclusive = weak or mixed curves; inactive = no such curve, though single readings can be large or run the other way.
Mark one answer only. Choices: label 1 (active), label 0 (inactive)

Some solved entries appear below for comparison.
{"columns": ["input_smiles", "assigned_label"],
 "data": [
  ["O=C(Nc1ccccc1)c1ccccc1O", "label 1"],
  ["O=C(O)c1ccco1", "label 0"],
  ["CC(C)(C)Cl", "label 0"]
]}

Problem: I'd appreciate the recorded outcome for Nc1cccc(S(=O)(=O)c2cccc(N)c2)c1 from this test.
Result: label 0

Problem: What would you report for CCc1c(C(=O)NN2CCCCC2)nn(-c2ccc(Cl)cc2Cl)c1-c1ccc(Br)cc1 ?
Result: label 0

----------
test: qHTS assay to identify small molecule agonists of the RXR signaling pathway - cell viability counter screen (AID 1159529); details: RXR-alpha-bla HEK293T viability, CellTiter-Glo, 16 h; series mostly up to 76.8 µM;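 note: HEK 293T cells carrying an RXR-alpha UAS beta-lactamase reporter; nearly all actives have a fitted effect of over 50% in size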
Results filed as inconclusive are left out. Activity calls are given as the source filed them. The call rests on the fitted dose curve; in most records, active means well fitted cell-killing curve with a large enough effect in the repeat runs; inconclusive means weak or mixed curves, or effect the other way; inactive means no such curve, though single readings can be large or run the other way.
Outcome (select one): true (active), false (inactive)

For orientation, consider the following solved cases.
{"columns": ["compound", "assigned_label"],
 "data": [
  ["O=C(O)C1(C(=O)O)CCC1.[NH2-].[NH2-].[Pt+2]", "false"],
  ["CC(C)(C)Cl", "false"],
  ["CCCCCCCCO[C@@H]1O[C@H](CO)[C@@H](O)[C@H](O)[C@H]1O", "false"]
]}

// switching to the query compound
Problem: I'd appreciate the recorded outcome for ClCCOCCOCCCl from this test.
Result: false

----------
target: Cytochrome P450 2D6 (Homo sapiens) (UniProt P10635); assay: Cytochrome P450 Family 2 Subfamily D Member 6 (CYP2D6) small molecule antagonists: luciferase reporter qHTS assay (AID 1671196); settings: P450-Glo CYP2D6 enzyme assay, luciferin luminescence, 1 h; series mostly up to 115 µM; note: nearly all actives have a fitted effect of over 50% in size; note: potency is the fitted concentration of half-maximal effect
Sequence (P10635 whole entry, looked up): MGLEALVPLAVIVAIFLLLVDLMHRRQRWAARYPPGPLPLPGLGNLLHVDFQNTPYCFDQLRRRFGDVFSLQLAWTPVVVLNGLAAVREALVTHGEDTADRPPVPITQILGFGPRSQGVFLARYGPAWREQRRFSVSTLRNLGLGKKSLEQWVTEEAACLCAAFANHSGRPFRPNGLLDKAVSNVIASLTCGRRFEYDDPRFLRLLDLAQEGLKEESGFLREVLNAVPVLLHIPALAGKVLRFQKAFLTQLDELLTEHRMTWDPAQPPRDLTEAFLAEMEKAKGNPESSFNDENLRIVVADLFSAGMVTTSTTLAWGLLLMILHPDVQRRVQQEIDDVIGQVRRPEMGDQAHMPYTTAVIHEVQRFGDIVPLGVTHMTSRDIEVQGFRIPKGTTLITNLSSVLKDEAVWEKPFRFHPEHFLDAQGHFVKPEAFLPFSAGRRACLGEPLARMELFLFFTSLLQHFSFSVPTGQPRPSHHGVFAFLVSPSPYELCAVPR
Inconclusive results are not listed. Calls of active or inactive are those of the source. Calls follow the shape of the dose curve; as a rule, active = well fitted inhibition curve with a large enough effect in the repeat runs; inconclusive = weak or mixed curves; inactive = no such curve, though single readings can be large or run the other way.
property_label: Potency

{"columns": ["compound", "property_label", "recorded_measurement"],
 "data": [
  ["CCCCCCCCCCCc1ccccc1", "Potency", "inactive"],
  ["COc1ccc(-c2nc3ccc(C4=NNC(=O)CC4C)cc3[nH]2)cc1 (centres undefined)", "Potency", "inactive"],
  ["O=S(=O)(Oc1ccc(Cl)cc1)c1ccccc1", "Potency", "31.7 µM (active)"],
  ["CC(C)OC(=O)C(C)N(C(=O)c1ccccc1)c1ccc(F)c(Cl)c1 (centres undefined)", "Potency", "inactive"],
  ["Clc1ccc(Cn2c(CN3CCCC3)nc3ccccc32)cc1", "Potency", "1.74 µM (active)"],
  ["CC(C)Nc1ccc(NC(C)C)c2c1C(=O)c1ccccc1C2=O", "Potency", "inactive"],
  ["CCOC(=O)c1cccnc1", "Potency", "inactive"],
  ["NCc1ccccc1Sc1ccccc1CO", "Potency", "7.76 µM (active)"],
  ["O=[N+]([O-])c1ccc(NCCO)c(OCCO)c1", "Potency", "inactive"],
  ["Cc1cccc(C)c1NC(=O)CN(CC(=O)O)CC(=O)O", "Potency", "inactive"]
]}

Would you kindly look at the next entry?
Problem: Data request, read-out Potency, for C=CCOc1ccccc1OCC(O)CNC(C)C (centres undefined)
Result: 9.77 µM (active)

----------
assay: qHTS assay to identify small molecule antagonists of the estrogen related receptor (ERR) signaling pathway from Tox21 library - cell viability counter screen (AID 1224834); settings: ERR reporter cells viability, CellTiter-Fluor, 17.5 h; series mostly up to 92.4 µM; note: nearly all actives have a fitted effect of over 30% in size
Results filed as inconclusive are left out. Activity calls are given as the source filed them. The call rests on the fitted dose curve; in most records, active means well fitted cell-killing curve with a large enough effect in the repeat runs; inconclusive means weak or mixed curves; inactive means flat fitted curve, though single readings scatter.
Choose the fitting class; nothing outside active, inactive is accepted.

Some solved entries appear below for comparison.
{"columns": ["compound", "assigned_label"],
 "data": [
  ["CCC(C)c1cc(C(C)(C)C)c(O)c(C(C)(C)C)c1 (stereo not given)", "inactive"],
  ["Cc1ncc(CO)c(C=O)c1O", "inactive"]
]}

Problem: Call for entry COc1cc(Cl)ccc1Oc1ccc(Cl)cc1Cl :
Result: inactive

Problem: Also, C#Cc1cccc(Nc2ncnc3cc(OCCOC)c(OCCOC)cc23)c1 please.
Result: active

Problem: Also, CC(C)O.CC(C)O.CCOC(=O)/C=C(\C)O.CCOC(=O)/C=C(\C)O.[Ti] please.
Result: inactive

----------
experiment: qHTS assay for identifying genotoxic compounds that show differential cytotoxicity against isogenic chicken DT40 cell lines with known DNA damage response pathways - wild type cell line (AID 743012); conditions: DT40 wild type chicken cells viability, CellTiter-Glo, 40 h; series mostly up to 68.4 µM; note: nearly all actives have a fitted effect of over 60% in size
Inconclusive results are not listed. Active and inactive are the calls of the source. Calls come from the whole dose curve; as a rule, active = well fitted cell-killing curve with a large enough effect in the repeat runs; inconclusive = weak or mixed curves, or effect the other way; inactive = no such curve, though single readings can be large or run the other way.
Lab note: assign the record to one of T for active, F for inactive

{"columns": ["input_smiles", "assigned_label"],
 "data": [
  ["C[C@H]1C[C@H]2[C@@H]3CCC4=CC(=O)C=C[C@]4(C)[C@@]3(Cl)[C@@H](O)C[C@]2(C)[C@@]1(O)C(=O)CO", "F"],
  ["CCCCNc1ccc(C(=O)OCCOCCOCCOCCOCCOCCOCCOCCOCCOC)cc1", "F"]
]}

Problem: Short answer needed: outcome of this test for CC(C)O.CC(C)O.CCOC(=O)/C=C(\C)O.CCOC(=O)/C=C(\C)O.[Ti] ?
Result: F

Problem: Follow-up item: CCOC(=O)NCCOc1ccc(Oc2ccccc2)cc1
Result: T

Problem: Could you do the same for O=C(O)c1ccc(S(=O)(=O)O)cc1C(=O)O , please?
Result: F

Problem: Can you handle CC(=O)[O][Al][O]C(C)=O next?
Result: F

Problem: What do you get for COc1cc(Cl)ccc1Oc1ccc(Cl)cc1Cl ?
Result: F

----------
experiment: qHTS assay for identifying genotoxic compounds that show differential cytotoxicity against isogenic chicken DT40 cell lines with known DNA damage response pathways - Rad54/Ku70 mutant cell line (AID 743015); conditions: DT40 Rad54/Ku70 mutant viability, CellTiter-Glo, 40 h; series mostly up to 66.8 µM; note: nearly all actives have a fitted effect of over 60% in size
Records with an inconclusive call do not appear. The source made the active and inactive calls. The call rests on the fitted dose curve; in most records, active means well fitted cell-killing curve with a large enough effect in the repeat runs; inconclusive means weak or mixed curves; inactive means no such curve, though single readings can be large or run the other way.
Returns: one label drawn from 1.0 (active), 0.0 (inactive)

{"columns": ["molecule", "assigned_label"],
 "data": [
  ["Brc1c2ccccc2cc2ccccc12", 0.0],
  ["O=C(O)c1ccco1", 0.0],
  ["CC(C)=CCC/C(C)=C/CC/C(C)=C/CO", 1.0],
  ["CC1(c2ccccc2)OC(C(=O)O)=CC1=O (configuration not stated)", 0.0],
  ["C=C1[C@H]2CC[C@@H]3[C@H]2C(C)(C)CCC[C@]13C", 0.0]
]}

Problem: Record request — test call for C#Cc1cccc(Nc2ncnc3cc(OCCOC)c(OCCOC)cc23)c1
Result: 1.0

Problem: What about this molecule? CC(COCCO)OCCO (configuration not stated)
Result: 0.0

Problem: // repeat for CCNc1cc(O)ccc1C and report
Result: 0.0

Problem: Then what about the molecule CC(=O)[O][Al] ?
Result: 0.0

Problem: Also C=C1C(=C/C=C2\CCC[C@]3(C)[C@@H]([C@H](C)/C=C/[C@@H](O)C4CC4)CC[C@@H]23)C[C@@H](O)C[C@@H]1O , if possible.
Result: 1.0

Problem: Moving on to the next molecule: O=C1c2ccccc2S(=O)(=O)N1CCCCN1CCN(c2ncccn2)CC1
Result: 0.0

Problem: Moving on to the next molecule: Clc1ccc(Cn2c(CN3CCCC3)nc3ccccc32)cc1
Result: 1.0

Problem: Do the same for CCc1c(C(=O)NN2CCCCC2)nn(-c2ccc(Cl)cc2Cl)c1-c1ccc(Br)cc1 please
Result: 1.0

Problem: Likewise for O=C1OC(=O)C2C3C=CC(C3)C12 (configuration not stated) ?
Result: 0.0

Problem: Same question, COC(=O)C1=C(C)NC(COC(N)=O)=C(C(=O)OC(C)C)C1c1cccc(Cl)c1Cl (configuration not stated) this time
Result: 1.0

Problem: Moving on to the next molecule: CC(=O)OC[C@H]1O[C@@H](n2ncc(=O)[nH]c2=O)[C@H](OC(C)=O)[C@@H]1OC(C)=O
Result: 1.0

Problem: Ok, now Cc1ccc(N=Nc2c(O)c(C(=O)O)cc3ccccc23)c(S(=O)(=O)O)c1
Result: 1.0

Problem: // same read-out, input: COC(=O)c1ccc(I)cc1S(=O)(=O)NC(=O)Nc1nc(C)nc(OC)n1
Result: 0.0

Problem: // same read-out, input: CN1CCN(C(c2ccccc2)c2ccccc2)CC1
Result: 0.0

Problem: Consider next the molecule CCC(Cl)CCC(Cl)C(Cl)CC(Cl)C(Cl)C(Cl)CCl (configuration not stated) in the same way.
Result: 0.0

Problem: Entry O=C(O)c1nc(Cl)c(Cl)c(Cl)c1Cl please
Result: 1.0

Problem: Likewise for COc1cccc(N(C)C(=S)Oc2ccc3c(c2)CCCC3)n1 ?
Result: 1.0
